Item-by-item account of Color
System: tall fescue
Experiment: Turf tolerance field study, tall fescue, Indiana 2004
Assay type: in vivo
Settings: Granule formulation, 14 Days After Treatment, 0 = brown to dead turf, 10 = lush green, g ai/Ha: penoxsulam 35, imazaquin 104, bispyribac-sodium 75, trifloxysulfuron-sodium 9.2, metsulfuron-methyl 10.4

COc1cc(OC)nc(Oc2cccc(Oc3nc(OC)cc(OC)n3)c2C(=O)O)n1 [Bispyribac-sodium, bispyribac-sodium] : 9.0 0-10 Scale
COc1cc(OC)nc(NC(=O)[N-]S(=O)(=O)c2ncccc2OCC(F)(F)F)n1.[Na+] [Trifloxysulfuron-sodium, trifloxysulfuron-sodium] : 5.8 0-10 Scale
COC(=O)c1ccccc1S(=O)(=O)NC(=O)Nc1nc(C)nc(OC)n1 : 8.8 0-10 Scale
COc1cnc(OC)n2nc(NS(=O)(=O)c3c(OCC(F)F)cccc3C(F)(F)F)nc12 : 9.0 0-10 Scale

Now turn to the next compound.
Given CC(C)C1(C)N=C(c2nc3ccccc3cc2C(=O)O)NC1=O (centres unmarked) , respond with its Color.
9.0 0-10 Scale

Data provenance is patent US7799343B2.
